Source: patent US20250110152A1

- Tested on: cellulase
- test details: AFM test of lignin-cellulase interaction force and dissociation rate in liquid phase environment (cellulase-modified AFM probe, lignin film)
- test conditions: loading rate 3 pN/s
Listing of recorded most likely dissociation force by entry.
Just the number in nN, nothing appended.

Q: Please give the measured most likely dissociation force for this compound: COc1ccccc1O [GA]
A: 0.39

Further cases:
Q: Please give the measured most likely dissociation force for this compound: CCCc1ccc(O)c(OC)c1 [G]
A: 0.87

Q: Please give the measured most likely dissociation force for this compound: COc1cc(/C=C/CO)cc(OC)c1O [S—OH]
A: 3.99

Q: Please give the measured most likely dissociation force for this compound: COc1cccc(OC)c1O [S]
A: 3.02

---

- Tested on: cellulase
- test details: AFM test of lignin-cellulase interaction force and dissociation rate in liquid phase environment (cellulase-modified AFM probe, lignin film)
- test conditions: AFM force-displacement curves, liquid phase
measured quantity: interaction force between lignin / lignin model substance and cellulase (nN)
Just the number in nN, nothing appended.

// below: answered compounds
Q: Record "CCCc1ccc(O)c(OC)c1" : what is its interaction force between lignin / lignin model substance and cellulase with cellulase?
A: 0.97

Q: Record COc1ccccc1OC(CO)C(O)c1cc(OC)c(O)c(OC)c1 (stereo not shown) : what is its interaction force between lignin / lignin model substance and cellulase with cellulase?
A: 11.69

Q: Record "O=C(O)/C=C/c1ccc(O)cc1" : what is its interaction force between lignin / lignin model substance and cellulase with cellulase?
A: 12.52

Q: Record COc1cc(C(O)C(CO)Oc2ccccc2OC)ccc1O (stereo not shown) : what is its interaction force between lignin / lignin model substance and cellulase with cellulase?
A: 2.59

Q: Record "COc1ccccc1O" : what is its interaction force between lignin / lignin model substance and cellulase with cellulase?
A: 0.58

Q: Record "COc1cccc(OC)c1O" : what is its interaction force between lignin / lignin model substance and cellulase with cellulase?
A: 4.76

Further cases:
Q: Record "COc1cc(/C=C/CO)cc(OC)c1O" : what is its interaction force between lignin / lignin model substance and cellulase with cellulase?
A: 4.31

---

- Tested on: cellulase
- test details: AFM test of lignin-cellulase interaction force and dissociation rate in liquid phase environment (cellulase-modified AFM probe, lignin film)
- test conditions: system lignin (model substance)-cellulase
measured quantity: Feq (nN)
Just the number in nN, nothing appended.

Q: Please give the measured Feq for this compound: "COc1cc(/C=C/CO)cc(OC)c1O"
A: 4.31

Q: Please give the measured Feq for this compound: COc1ccccc1OC(CO)C(O)c1cc(OC)c(O)c(OC)c1 (stereo not shown)
A: 11.69

Q: Please give the measured Feq for this compound: "COc1cccc(OC)c1O"
A: 4.76

Q: Please give the measured Feq for this compound: "CCCc1ccc(O)c(OC)c1"
A: 0.97

Q: Please give the measured Feq for this compound: "COc1ccccc1O"
A: 0.58

Further cases:
Q: Please give the measured Feq for this compound: COc1cc(C(O)C(CO)Oc2ccccc2OC)ccc1O (stereo not shown)
A: 2.59

Q: Please give the measured Feq for this compound: "O=C(O)/C=C/c1ccc(O)cc1"
A: 12.52

---

Listing of recorded most likely dissociation force by entry.
- Test system: cellulase
- test details: AFM test of lignin-cellulase interaction force and dissociation rate in liquid phase environment (cellulase-modified AFM probe, lignin film)
- test conditions: loading rate 10 pN/s

// below: answered molecules
Q: Please give the measured most likely dissociation force for this molecule: "O=C(O)/C=C/c1ccc(O)cc1"
A: 10.04 nN

Q: Please give the measured most likely dissociation force for this molecule: "COc1ccccc1O"
A: 0.88 nN

Further cases:
Q: Please give the measured most likely dissociation force for this molecule: COc1ccccc1OC(CO)C(O)c1cc(OC)c(O)c(OC)c1 (centres unmarked)
A: 7.65 nN

Q: Please give the measured most likely dissociation force for this molecule: COc1cc(C(O)C(CO)Oc2ccccc2OC)ccc1O (centres unmarked)
A: 1.92 nN

Q: Please give the measured most likely dissociation force for this molecule: "COc1cc(/C=C/CO)cc(OC)c1O"
A: 4.58 nN
